- STUDY TARGET: Bcl-xL (Homo sapiens, UniProt Q07817)
- Construct: Measured levels of Bcl-xL protein of HCT116 cells treated with the tested compounds; host or cells: HCT116
- Sequence (Q07817 whole entry): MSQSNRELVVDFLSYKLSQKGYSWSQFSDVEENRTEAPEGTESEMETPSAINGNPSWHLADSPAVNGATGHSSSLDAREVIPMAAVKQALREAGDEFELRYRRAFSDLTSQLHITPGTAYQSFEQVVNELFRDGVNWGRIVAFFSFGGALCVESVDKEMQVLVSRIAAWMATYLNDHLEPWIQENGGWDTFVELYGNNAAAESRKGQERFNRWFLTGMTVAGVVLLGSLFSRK
- EXPERIMENTAL PROTOCOL: HCT116 Bcl-xL degradation, capillary-based immunoassay (WES)
- Format: cell-based
- ASSAY SETUP: HCT116, 24 h, 9-point serial dilution
Entries and their DC50 values follow.
Respond numerically; units are nM and should not be typed.

molecule="Cc1cc(N(CCCCN(C)C(=O)CCCCCCCCCCNc2cccc3c2C(=O)N(C2CCC(=O)NC2=O)C3=O)c2ccc(-c3cnn(CC45CC6(C)CC(C)(C4)CC(OCCN(C)C)(C6)C5)c3C)c(C(=O)O)n2)nnc1Nc1nc2ccccc2s1 (centres unmarked) [Example 90]" study_target="Bcl-xL (Homo sapiens, UniProt Q07817)" endpoint_value=1.33

Continue with the molecule presented below.
DC50 reported for this molecule Cc1ncsc1-c1ccc([C@H](C)NC(=O)[C@@H]2C[C@@H](O)CN2C(=O)[C@@H](NC(=O)COCCCCCCCCCCCN(C)CCOC23CC4(C)CC(C)(CC(Cn5ncc(-c6ccc(N7CCCc8c7nnc(Nc7nc9ccccc9s7)c8C)nc6C(=O)O)c5C)(C4)C2)C3)C(C)(C)C)cc1 [Example 110] : 11.4
